tested_system: T1, monovalent hVISTA-ECD (human VISTA extracellular domain with His tail) (human, UniProt Q9H7M9 33-193)
T1 construct: analyte flowed over captured antibody; also called huVISTA-His
T1 sequence (Q9H7M9 other isoform, or with tags, fused parts or gaps limits assumed): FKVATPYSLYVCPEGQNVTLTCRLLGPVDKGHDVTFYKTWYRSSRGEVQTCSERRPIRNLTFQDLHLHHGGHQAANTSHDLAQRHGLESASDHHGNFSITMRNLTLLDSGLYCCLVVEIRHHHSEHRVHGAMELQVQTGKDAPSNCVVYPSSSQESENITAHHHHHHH
assay_comment: SPR, pH 7.4
pKd: −log10 of the molar value.
Label 1 when pKd is at or above 8; otherwise label -1.

binder: P1-064526 (41F11_VH_D31E/Y50W/S55E/A60H/Y100E) (antibody, V domains shown, Kabat positions; also called P1-064526-1) VH: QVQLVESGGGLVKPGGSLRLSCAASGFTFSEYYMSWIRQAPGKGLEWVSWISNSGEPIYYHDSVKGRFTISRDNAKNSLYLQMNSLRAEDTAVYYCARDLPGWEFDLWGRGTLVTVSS VL: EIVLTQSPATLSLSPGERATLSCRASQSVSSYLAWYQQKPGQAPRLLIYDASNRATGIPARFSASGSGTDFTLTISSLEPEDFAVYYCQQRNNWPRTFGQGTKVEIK
discrete_label: 1
--
binder: P1-065320 (41F11_VH_L96EF100aG VK_A64G) (antibody, V domains shown) VH: QVQLVESGGGLVKPGGSLRLSCAASGFTFSDYYMSWIRQAPGKGLEWVSYISNSGSPIYYADSVKGRFTISRDNAKNSLYLQMNSLRAEDTAVYYCARDEPGWYGDLWGRGTLVTVSS VL: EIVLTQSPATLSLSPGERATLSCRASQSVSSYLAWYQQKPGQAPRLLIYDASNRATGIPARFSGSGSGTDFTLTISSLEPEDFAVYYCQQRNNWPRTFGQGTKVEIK
discrete_label: -1
--
binder: P1-064516 (41F11_Vk_V29D/A64G/R91T/R96Y) (antibody, V domains shown, also called P1-064516-1) VH: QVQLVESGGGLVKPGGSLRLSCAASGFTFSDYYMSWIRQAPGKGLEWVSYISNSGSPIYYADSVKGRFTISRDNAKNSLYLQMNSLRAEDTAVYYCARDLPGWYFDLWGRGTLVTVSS VL: EIVLTQSPATLSLSPGERATLSCRASQSDSSYLAWYQQKPGQAPRLLIYDASNRATGIPARFSGSGSGTDFTLTISSLEPEDFAVYYCQQTNNWPYTFGQGTKVEIK
discrete_label: -1
--
binder: P1-064502 (41F11_Vk_R96YA64G) (antibody, V domains shown, also called P1-064502-1) VH: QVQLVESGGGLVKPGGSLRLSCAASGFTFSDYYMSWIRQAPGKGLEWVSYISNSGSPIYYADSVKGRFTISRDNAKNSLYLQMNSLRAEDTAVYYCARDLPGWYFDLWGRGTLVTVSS VL: EIVLTQSPATLSLSPGERATLSCRASQSVSSYLAWYQQKPGQAPRLLIYDASNRATGIPARFSGSGSGTDFTLTISSLEPEDFAVYYCQQRNNWPYTFGQGTKVEIK
discrete_label: -1
--
binder: P1-065318 (41F11_VH_L96E VK A64G) (antibody, V domains shown, Kabat positions; also called P1-065318-1) VH: QVQLVESGGGLVKPGGSLRLSCAASGFTFSDYYMSWIRQAPGKGLEWVSYISNSGSPIYYADSVKGRFTISRDNAKNSLYLQMNSLRAEDTAVYYCARDEPGWYFDLWGRGTLVTVSS VL: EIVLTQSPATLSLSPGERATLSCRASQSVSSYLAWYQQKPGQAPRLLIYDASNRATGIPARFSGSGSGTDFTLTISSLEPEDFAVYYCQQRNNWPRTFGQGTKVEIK
discrete_label: -1
